SYSTEM: UniProt Q8IL58
PROTOCOL_DESCRIPTION: IC50 for competition of protein binding to Kinobeads;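 also: native unpurified kinases from lysate captured on beads bearing immobilized kinase inhibitors, with bead-bound kinases quantified by mass spectrometry across compound doses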
TEST_CONDITIONS: assay detail: Kinobeads competition in P. falciparum blood-stage lysate
pIC50: −log10 of the molar value.
READOUT_TYPE: pIC50

O=c1[nH]c2ccc(Cl)cc2c(NC2CN3CCC2CC3)c1-c1nc2ccccc2[nH]1 (stereo unspecified) = < 4.70

----------
SYSTEM: UniProt Q8ILH5
PROTOCOL_DESCRIPTION: IC50 for competition of protein binding to Kinobeads
TEST_CONDITIONS: assay detail: Kinobeads competition in P. falciparum blood-stage lysate
pIC50: −log10 of the molar value.
READOUT_TYPE: pIC50

O=c1[nH]c2ccc(Cl)cc2c(NC2CN3CCC2CC3)c1-c1nc2ccccc2[nH]1 (stereo unspecified) [CHIR-124] = < 4.70
